Biological target: HiBit tagged KAT6A (Homo sapiens)
Construct: host or cells: HeLa
Sequence (Q92794 whole entry): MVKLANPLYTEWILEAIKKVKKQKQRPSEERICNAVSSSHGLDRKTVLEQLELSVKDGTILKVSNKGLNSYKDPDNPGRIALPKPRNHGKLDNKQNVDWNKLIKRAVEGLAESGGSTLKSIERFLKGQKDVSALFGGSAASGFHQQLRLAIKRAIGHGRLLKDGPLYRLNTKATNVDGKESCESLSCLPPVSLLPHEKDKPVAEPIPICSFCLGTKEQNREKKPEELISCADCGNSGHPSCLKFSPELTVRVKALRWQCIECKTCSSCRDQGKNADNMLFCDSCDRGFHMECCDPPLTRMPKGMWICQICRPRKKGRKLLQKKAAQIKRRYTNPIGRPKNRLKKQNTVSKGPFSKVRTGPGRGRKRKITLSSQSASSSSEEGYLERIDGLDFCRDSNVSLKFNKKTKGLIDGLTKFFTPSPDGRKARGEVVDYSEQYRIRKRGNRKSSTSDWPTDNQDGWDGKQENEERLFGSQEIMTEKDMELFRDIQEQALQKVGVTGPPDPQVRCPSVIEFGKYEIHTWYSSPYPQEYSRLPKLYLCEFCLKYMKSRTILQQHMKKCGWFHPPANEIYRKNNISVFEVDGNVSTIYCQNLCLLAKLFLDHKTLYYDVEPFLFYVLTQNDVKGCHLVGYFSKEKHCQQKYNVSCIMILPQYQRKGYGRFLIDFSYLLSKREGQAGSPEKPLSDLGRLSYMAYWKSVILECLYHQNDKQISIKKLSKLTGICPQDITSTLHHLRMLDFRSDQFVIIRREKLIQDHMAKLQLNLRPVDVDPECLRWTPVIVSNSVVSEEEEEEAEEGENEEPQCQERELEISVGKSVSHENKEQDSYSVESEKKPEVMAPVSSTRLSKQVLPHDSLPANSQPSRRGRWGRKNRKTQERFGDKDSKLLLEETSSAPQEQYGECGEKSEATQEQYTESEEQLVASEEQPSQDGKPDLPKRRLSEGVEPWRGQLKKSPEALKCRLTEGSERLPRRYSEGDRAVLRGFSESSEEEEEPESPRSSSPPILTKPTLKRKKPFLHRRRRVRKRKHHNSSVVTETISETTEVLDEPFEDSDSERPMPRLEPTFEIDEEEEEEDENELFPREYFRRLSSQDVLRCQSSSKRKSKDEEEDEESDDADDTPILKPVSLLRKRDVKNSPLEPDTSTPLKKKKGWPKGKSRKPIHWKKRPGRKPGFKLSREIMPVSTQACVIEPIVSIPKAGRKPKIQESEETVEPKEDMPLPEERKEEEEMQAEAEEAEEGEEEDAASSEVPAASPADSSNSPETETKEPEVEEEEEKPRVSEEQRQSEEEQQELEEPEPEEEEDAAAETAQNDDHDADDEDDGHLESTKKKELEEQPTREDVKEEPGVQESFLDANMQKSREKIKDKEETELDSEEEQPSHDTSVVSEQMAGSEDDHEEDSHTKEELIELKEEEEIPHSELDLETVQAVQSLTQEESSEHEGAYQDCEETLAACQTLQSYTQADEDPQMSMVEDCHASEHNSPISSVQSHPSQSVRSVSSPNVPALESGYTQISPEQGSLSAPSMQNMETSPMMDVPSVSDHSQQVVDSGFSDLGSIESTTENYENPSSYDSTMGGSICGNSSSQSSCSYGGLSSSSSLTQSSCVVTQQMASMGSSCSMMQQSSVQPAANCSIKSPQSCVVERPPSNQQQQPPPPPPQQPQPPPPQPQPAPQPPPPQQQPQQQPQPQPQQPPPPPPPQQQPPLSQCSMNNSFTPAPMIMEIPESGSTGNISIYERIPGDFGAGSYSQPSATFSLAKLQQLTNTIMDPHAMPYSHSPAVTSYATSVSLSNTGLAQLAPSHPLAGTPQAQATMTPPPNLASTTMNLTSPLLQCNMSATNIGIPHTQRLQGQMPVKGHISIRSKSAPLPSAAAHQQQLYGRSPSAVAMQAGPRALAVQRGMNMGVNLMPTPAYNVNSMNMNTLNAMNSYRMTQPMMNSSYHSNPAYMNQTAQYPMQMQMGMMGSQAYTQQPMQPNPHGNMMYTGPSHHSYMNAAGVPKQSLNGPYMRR
Assay: HiBit KAT6A Degradation Assessment
Type: cell-based
Details: HeLa cells with HiBit tagged KAT6A, 18 h of treatment, 9-point serial dilution
testReadout: DC50

Answered examples (2):
1. COc1ccc(N2CC3(CCN(CC4CCN(c5ccc6c(c5)C(=O)N(C5CCC(=O)NC5=O)C6=O)C4)CC3)C2)cc1S(=O)(=O)Nc1noc2cc(Cn3cccn3)cc(OC)c12 (stereo not drawn) [Example 41] = < 0.01 µM
2. COc1cc(Cn2cccn2)cc2onc(NS(=O)(=O)c3cccc(NC4CCN(C[C@@H]5CCN(c6ccc7c(c6)CN([C@H]6CCC(=O)NC6=O)C7=O)C5)CC4)c3)c12 [Example 38] = 0.01 to 0.1 µM

## Input Quick one: DC50 of COc1cc(Cn2cccn2)cc2onc(NS(=O)(=O)c3cccc(N4CCC5(CCN(C[C@@H]6CCN(c7ccc8c(c7)CN(C7CCC(=O)NC7=O)C8=O)C6)CC5)CC4)c3)c12 (stereo partly drawn) [Example 39] ?
## Output < 0.01 µM

###

Biological target: HiBit tagged KAT6A (Homo sapiens)
Construct: host or cells: HeLa
Assay: HiBit KAT6A Degradation Assessment
Format: cell-based
Settings: HeLa cells with HiBit tagged KAT6A, 18 h of treatment, 9-point serial dilution
Recorded measurements of Dmax, one per entry

Before answering, review these 2 worked examples.
1. COc1cc(Cn2cccn2)cc2onc(NS(=O)(=O)c3cccc(N4CCN(CC5CCN(c6ccc7c(c6)C(=O)N(C6CCC(=O)NC6=O)C7=O)C5)C(C)(C)C4)c3)c12 (stereo not drawn) = 50 to 75%
2. COc1cc(Cn2cccn2)cc2onc(NS(=O)(=O)c3cccc(N4CCN(CC5CN(c6ccc7c(c6)C(=O)N(C6CCC(=O)NC6=O)C7=O)CCO5)CC4)c3)c12 (stereo not drawn) = 25 to 50%

## Input # returns recorded Dmax (system: HiBit tagged KAT6A (Homo sapiens)) for COc1cc(Cn2cccn2)cc2onc(NS(=O)(=O)c3cccc(N4CCN(C(=O)C5CCN(c6ccc7c(c6)C(=O)N(C6CCC(=O)NC6=O)C7=O)C5)CC4)c3)c12 (stereo not drawn)
## Output ≤ 25%

###

Biological target: HiBit tagged KAT6A (Homo sapiens)
Construct: host or cells: HeLa
Test: HiBit KAT6A Degradation Assessment
Type: cell-based
Details: HeLa cells with HiBit tagged KAT6A, 18 h of treatment, 9-point serial dilution
testReadout: Dmax

Recorded results for 3 compounds are shown here.
1) COc1cc(Cn2cccn2)cc2onc(NS(=O)(=O)c3cccc(N4CCN(CC5CCN(CC6CCN(c7ccc8c(c7)C(=O)N(C7CCC(=O)NC7=O)C8=O)CC6)CC5)CC4)c3)c12 (centres unmarked) = > 75%
2) COc1cc(Cn2cccn2)cc2onc(NS(=O)(=O)c3cccc(N4CCN(CC5CCN(c6ccc7c(c6)CN(C6CCC(=O)NC6=O)C7=O)C5)CC4)c3)c12 (centres unmarked) = 25 to 50%
3) COc1c(N2CC3(CCN(C[C@@H]4CCN(c5ccc6c(c5)C(=O)N(C5CCC(=O)NC5=O)C6=O)C4)CC3)C2)cccc1S(=O)(=O)Nc1noc2cc(Cn3cccn3)cc(OC)c12 (some centres unmarked) = > 75%

## Input Given the entry COc1cc(Cn2cccn2)cc2onc(NS(=O)(=O)c3cccc(N4CCN(CC5CCN(c6ccc(C(=O)NC7CCC(=O)NC7=O)nc6)CC5)CC4)c3)c12 (centres unmarked) , what Dmax was observed with HiBit tagged KAT6A (Homo sapiens)?
## Output 25 to 50%

## Input Now give it for COc1cc(Cn2cccn2)cc2onc(NS(=O)(=O)c3cccc(N4CC5(CCN(CC6CCN(c7ccc8c(c7)CN(C7CCC(=O)NC7=O)C8=O)C6)CC5)C4)c3)c12 (centres unmarked) too.
## Output > 75%
